- Test system: NCI-H23 lung
- test.method.notes: NCI tumour cell line growth inhibition, 48 h
Give measured TGI for each item. Keep answers brief.

CC1=NC(C(=O)O)Cc2c1[nH]c1ccccc21 (centres undefined); > 100 µM
O=C([O-])c1ccc2c(c1)-c1nc-2nc2[n-]c(nc3nc(nc4[n-]c(n1)c1ccc(C(=O)[O-])cc41)-c1ccc(C(=O)[O-])cc1-3)c1ccc(C(=O)[O-])cc21.[Gd+3].[K+]; > 100 µM
COc1cc(/C=N/NC(=O)c2ccc(NC(C)=O)cc2OC)ccc1O; > 100 µM

Now consider a different compound.
Q: Any idea what TGI was measured for `CC[C@]12C=CCN3CC[C@]4(C(=C(C(=O)OC)C1)Nc1cc(OC)c(OC(C)=O)cc14)[C@@H]32` ?
Ans: 18.8 µM

* * *

For each record, write down the corresponding TGI.
- System: IGROV1 ovarian
- test.method.notes: NCI tumour cell line growth inhibition, 48 h
Give bare numbers, in µM.

Worked cases, answers included:
COc1cc(/C=C2\CC3C4CCC5=CC(=O)CC[C@]5(C)C4CC[C@]3(C)C2=O)ccc1OCCCn1ccnc1 (stereo not given in full); 29.5
CCCCCCCCCCCCCCCCP(=O)(OC)OC; 34.6

Now consider a different molecule.
Q: Form field: reported TGI of COC1C(CO)OC(n2c3ccccc3c3c4c(c5c6ccccc6[nH]c5c32)C(=O)NC4=O)C(OC(=O)C(N)CCCCN)C1O (stereo not given)
Ans: 2.93

* * *

- Tested on: SR leukemia
- test.method.notes: NCI tumour cell line growth inhibition, 48 h; in the data active means GI50 below about 0.43 µM; inactive means the rest
// one of Yes (active), No (inactive), no free text

Worked examples follow.
CC(C)(C)N=Cc1ccccc1[O-].CC(C)(C)N=Cc1ccccc1[O-].[Co+2]; No
COc1cccc2c1C(CO)N1C(C#N)C3CC(C(=O)O)C(C1C2)N3C (centres undefined); Yes
Cc1cc(C)c(CNC(=O)c2cc(-c3ccc(CN4CCOCC4)cc3)cc3c2cnn3C2CCCC2)c(=O)[nH]1; No

Let us examine a further case.
Q: For `COc1c(OCCCN2CCOCC2)ccc2c3n(c(=NC(=O)c4cnc(N)nc4)nc12)CCN3` , what call appears in the results of this test?
Ans: Yes

* * *

- Test system: UACC-62 melanoma
- test.method.notes: NCI tumour cell line growth inhibition, 48 h
For each record, write down the corresponding TGI.

// worked examples, TGI included
O=P(O)(OP(=O)(O)c1ccccc1)c1ccccc1 (tested in a mixture with another compound); > 100 µM
CC12CCC(C(=O)n3c1nc1ccccc13)C(C)(C)O2 (stereo unspecified); > 100 µM
CC1(C)CC(=O)C(Cc2ccccc2)(Cc2ccccc2)C(=O)C1; > 100 µM
CCOC1CN(C)C(=Nc2cccc3ccccc23)S1 (stereo unspecified); > 10 µM
C[C@]12CC(c3ccccc3O1)C(C(N)=O)C(=O)N2 (stereo partly specified); > 100 µM

// below: TGI requested for another molecule
Q: Need TGI of `Cc1ccc(O)c(N=Nc2c(O)cc(S(=O)(=O)O)c3ccccc23)c1` , thanks.
Ans: > 100 µM

* * *

- Tested on: 786-0 renal
- test.method.notes: NCI tumour cell line growth inhibition, 48 h; in the data active = GI50 below about 0.43 µM; inactive = the rest
Lab note: assign the record to one of y (active), n (inactive)

COc1cc(C(=O)/C=C/c2c(-c3cccs3)nc3sc(C)cn23)cc(OC)c1OC; n

Q: What did this assay record as the result for `O=c1c2cc(I)ccc2nc(-c2cccs2)n1-c1ccc(S(=O)(=O)Nc2nccs2)cc1` ?
Ans: n

Q: Which outcome was entered for the compound `Nc1ccc2c(c1)Cc1cc(Cl)c(Cl)cc1-2` in this test?
Ans: n

* * *

- Test system: COLO 205 colon
- test.method.notes: NCI tumour cell line growth inhibition, 48 h
Provide the reported TGI of each item.

Completed entries (count: 9):
CCOC(=O)N1C=NC23C(c4ccccc4)C(c4ccccc4)C12C(=O)N(C)C(=O)N3C (stereo not given); > 100 µM
CC(C)=CCC[C@@H](C)C1=C(O)C(c2c(I)c(=O)n(C)c(=O)n2C)=C(C)C(=O)C1=O; > 100 µM
O=c1c2sc3nc(NCCN4CCCCC4)ncc3c2ncn1-c1ccccc1; > 100 µM
Cc1cn(CCOCCOC(=O)NC(CCCN=C(N)N)C(=O)O)c(=O)[nH]c1=O (stereo not given); > 100 µM
OCCNc1ncnc2nc[nH]c12; > 100 µM
COc1c(Br)cc(Br)c(OC)c1-c1ccc[nH]1; > 100 µM
O=C1Nc2c(Cl)cc(Cl)cc2/C1=N/N=C/c1ccccc1O; 31.4 µM
CC(C)(C)c1[nH]nc2c1C(c1cc3ccccc3[nH]c1=O)Nc1cc(C(=O)Nc3ccc(Cl)cc3)ccc1N2 (stereo not given); 6.46 µM
CC(NC(=O)C(C)C(=O)Nc1ccc(C(F)(F)F)cc1)C(N)=O (stereo not given); > 100 µM

Q: What reported TGI corresponds to `O=C1/C(=C/c2ccc3c(c2)CCC3)Cc2cc3c(cc21)CCC3` on COLO 205 colon?
Ans: > 100 µM

* * *

- Tested on: UACC-257 melanoma
- test.method.notes: NCI tumour cell line growth inhibition, 48 h; in the data active = GI50 below about 0.43 µM; inactive = the rest
Pick one and only one: active, inactive

Solved cases (4 shown):
Nc1nc2c(c3cnccc13)C(c1cccc(Br)c1)Cc1cnccc1-2 (centres undefined); inactive
c1cc(N2CCCC2)c2nc(-c3[nH]ncc3Nc3ncnc4[nH]ccc34)[nH]c2c1; active
COc1cc(CC(C)C(C)Cc2ccc(O)c(OC)c2)ccc1O (centres undefined); inactive
COc1cc(-n2cncc2-c2ccc3ccccc3c2)cc(OC)c1OC; inactive

Q: What is the recorded call for this compound in the test? `CC1(C)CCC(S(=O)(=O)c2ccc3c(c2)/C(=N\O)c2cc(S(=O)(=O)N4CCN(c5ccc(F)cc5O)CC4)ccc2-3)CC1`
Ans: active

Q: Tell me the recorded outcome of this test for `COc1c(OCCCN2CCOCC2)ccc2c3n(c(=NC(=O)c4cnc(N)nc4)nc12)CCN3` .
Ans: active

Q: Please share the test call associated with Cn1nc(-c2cccs2)cc1/N=C(\N)C(C)(C#N)Cc1ccccc1 (centres undefined) .
Ans: inactive

Q: Fill in: this test's call for COc1cccc2c1C(CO)N1C(C#N)C3CC(C(=O)O)C(C1C2)N3C (centres undefined) is ___
Ans: active

Q: I'd appreciate the recorded outcome for `O=C([O-])c1ccc2c(c1)-c1nc-2nc2[n-]c(nc3nc(nc4[n-]c(n1)c1ccc(C(=O)[O-])cc41)-c1ccc(C(=O)[O-])cc1-3)c1ccc(C(=O)[O-])cc21.[Gd+3].[K+]` from this test.
Ans: inactive

* * *

- Test system: MDA-N
- test.method.notes: NCI tumour cell line growth inhibition, 48 h
metric: TGI

Use these answered entries as a reference point.
C=C(C(=O)OC)[C@H]1CC/C(C)=C/CC[C@@](C)(O)C=CC[C@@]2(C)O[C@@H]2C1; > 100 µM
CC(=O)OCC1CCC(=C2C(=O)OC(C)(C)OC2=O)N1 (stereo unspecified); > 100 µM
O=C1Nc2c(Cl)cc(Cl)cc2/C1=N/N=C/c1ccccc1O; 35.1 µM

List the reported TGI of each molecule below.
1. COc1cc2c(cc1OC)C(=O)/C(=C/c1ccccc1)CC2
2. Cc1sccc1C(=S)Nc1ccc(Cl)c(/C=N/OC(C)(C)C)c1
3. CCN(CC)CCCNc1nc2ccccc2[n+]([O-])n1

Ans:
["> 100 µM", "26.9 µM", "> 100 µM"]

* * *

Record form. Attribute: TGI. Fill in for each entry.
- Test system: K-562 leukemia
- test.method.notes: NCI tumour cell line growth inhibition, 48 h

// batch mode: one TGI value per listed entry
1. O=C(Nc1cccc(C(F)(F)F)c1)C(=O)C(C(=O)c1ccc2ccccc2c1)C1OC(=O)c2ccccc21 (stereo unspecified)
2. OC(Cc1cccnc1)(c1ccccc1)c1ccccc1
3. CN(C)C=C1C(=O)N(C)C(=O)N(C)C1=O
4. COc1cc(/C=C/C(=O)c2cc(OC)c(OC)c(OC)c2)ccc1Oc1nc2c(c(=O)n(C)c(=O)n2C)n1C
5. CC(=O)Nc1ccc(-c2csc(Nc3ccc(-c4csc(-c5ccccc5)n4)cc3)n2)cc1
6. Nc1ccc2c(c1)Cc1cc(Cl)c(Cl)cc1-2

Ans:
> 73.7 µM
> 100 µM
> 100 µM
8.23 µM
> 50 µM
> 100 µM

* * *

- Test system: T-47D breast
- test.method.notes: NCI tumour cell line growth inhibition, 48 h; in the data active = GI50 below about 0.43 µM; inactive = the rest
Select the correct class. Options are active, inactive and nothing else.

CC#Cc1nc2ccccc2c(=O)[nH]1; inactive
COc1cccc2c1C(CO)N1C(C#N)C3CC(C(=O)O)C(C1C2)N3C (stereo not given); active
Cc1cccc(NC(=O)c2sc3nc4c(cc3c2N)CCCC4)c1; inactive
N#CC(C#N)=C/C=C(\Sc1ccc(F)c(Cl)c1)c1ccc(Cl)cc1; inactive
O=C1C=CC(=O)c2c1c1c(c3c2C2c4ccccc4C3c3ccccc32)C2c3ccccc3C1c1ccccc12; inactive
CC(=O)OCC1OC(OC2=C(CC=C(C)C)C(=O)c3ccccc3C2=O)C(OC(C)=O)C(OC(C)=O)C1OC(C)=O (stereo not given); inactive
O=C1OCC2=C1C(c1cccc(F)c1)c1cc3c(cc1N2CCO)CCC3 (stereo not given); inactive
COc1cc(-n2cncc2-c2ccc3ccccc3c2)cc(OC)c1OC; inactive
Nc1ccc2c(c1)Cc1cc(Cl)c(Cl)cc1-2; inactive

# evaluate next
Q: Give the logged outcome of this assay for the following compound: `CC(=O)Nc1ccc(-c2csc(Nc3ccc(-c4csc(-c5ccccc5)n4)cc3)n2)cc1`
Ans: inactive
